The reported measurements were obtained from ChEMBL document CHEMBL4304833.

Assay system: Proto-oncogene tyrosine-protein kinase Src (Homo sapiens)
Assay comment: Inhibition of Src (unknown origin) assessed as residual activity at 10 uM relative to control
Experimental readout: Activity (%)

CN1CCC(N2CCN(c3ncc4cc(-c5c(Cl)cccc5Cl)c(=O)n(C)c4n3)CC2)CC1 | 10.5
CN1CCC(N2CCN(c3ncc4cc(-c5c(Cl)cc(NC(=O)OC(C)(C)C)cc5Cl)c(=O)n(C)c4n3)CC2)CC1 | 10.4
Cn1c(=O)c(-c2c(Cl)cc(NC(=O)OC(C)(C)C)cc2Cl)cc2cnc(N3CCN(c4ccncc4)CC3)nc21 | 8
CN1CCC(N2CCN(c3ncc4cc(-c5c(Cl)cc(NC(=O)C(C)(C)C)cc5Cl)c(=O)n(C)c4n3)CC2)CC1 | 8.9
